# System: NCI-H2122
# EXPERIMENT NOTES: combination cScore with sotorasib (Bliss gap around IC50) (%PoC); higher = stronger additive effect
PROPERTY NAME: combination cScore with sotorasib

>>> test_value("CCCC(CCC)C(=O)O [Valproic acid] + C=CC(=O)N1CCN(c2nc(=O)n(-c3c(C)ccnc3C(C)C)c3nc(-c4c(O)cccc4F)c(F)cc23)[C@@H](C)C1 [sotorasib]")
-1.96
>>> test_value("CC(C)(C)c1ccc(S(=O)(=O)NCc2ccc(C(=O)Nc3cccnc3)cc2)cc1 [STF-31] + C=CC(=O)N1CCN(c2nc(=O)n(-c3c(C)ccnc3C(C)C)c3nc(-c4c(O)cccc4F)c(F)cc23)[C@@H](C)C1 [sotorasib]")
-10.2
>>> test_value("Cc1c(Cn2c(C)nc3c(C(=O)O)cc(N4CCOCC4)cc32)cccc1C(F)(F)F + C=CC(=O)N1CCN(c2nc(=O)n(-c3c(C)ccnc3C(C)C)c3nc(-c4c(O)cccc4F)c(F)cc23)[C@@H](C)C1 [sotorasib]")
5.26
>>> test_value("CC(C)c1cc(-c2n[nH]c(=O)n2-c2ccc3c(ccn3C)c2)c(O)cc1O [Ganetespib] + C=CC(=O)N1CCN(c2nc(=O)n(-c3c(C)ccnc3C(C)C)c3nc(-c4c(O)cccc4F)c(F)cc23)[C@@H](C)C1 [sotorasib]")
-1.8
>>> test_value("CC(C)(C(=O)NCC(F)(F)C(F)(F)F)C(=O)N[C@@H]1C(=O)Nc2ccccc2-c2ccccc21 + C=CC(=O)N1CCN(c2nc(=O)n(-c3c(C)ccnc3C(C)C)c3nc(-c4c(O)cccc4F)c(F)cc23)[C@@H](C)C1 [sotorasib]")
2.56
